# ASSAY_PROCEDURE: CelltiterGlo viability cell assay
# Type: cell-based
# MEASUREMENT_CONTEXT: human, RPMI-8226 multiple myeloma cells, 8226, 6 day, 1 uM; read-out: viability Replicate 2

# STRUCTURE_SMILES_STRING, UNIT_ABBREVIATION, viability at 6 day, 1 µM
data = [
    ("COc1cc(OC)cc(-c2noc(N3CCN(C)C4(CCN(c5ccnc(C)c5)CC4)C3)n2)c1", "%", 99.7),
]

* * *

# ASSAY_PROCEDURE: CelltiterGlo viability cell assay
# Assay type: cell-based
# MEASUREMENT_CONTEXT: human, RPMI-8226 multiple myeloma cells, 8226, 6 day, 9.5 uM; read-out: viability Replicate 1
# Description: Supplementary Figure 13. […] Viability of (a) Multiple Myeloma lines and (b) Breast Cancer cell lines following 3 or 6 days treatment with […] manufacturer’s instructions as described in the Supplementary methods. Data are normalized to DMSO control. N=3 biological replicates, +/- SEM. Source data are provided as a Source Data […] CelltiterGlo viability cell assay […]

# STRUCTURE_SMILES_STRING, viability at 6 day, 9.5 µM / %
data = [
    ("COc1cc(OC)cc(-c2noc(N3CCN(C)C4(CCN(c5ccnc(C)c5)CC4)C3)n2)c1", 77),
]

Value source: paper PMC6917776
